target: MARK4 (Homo sapiens)
Sequence (Q96L34 whole entry): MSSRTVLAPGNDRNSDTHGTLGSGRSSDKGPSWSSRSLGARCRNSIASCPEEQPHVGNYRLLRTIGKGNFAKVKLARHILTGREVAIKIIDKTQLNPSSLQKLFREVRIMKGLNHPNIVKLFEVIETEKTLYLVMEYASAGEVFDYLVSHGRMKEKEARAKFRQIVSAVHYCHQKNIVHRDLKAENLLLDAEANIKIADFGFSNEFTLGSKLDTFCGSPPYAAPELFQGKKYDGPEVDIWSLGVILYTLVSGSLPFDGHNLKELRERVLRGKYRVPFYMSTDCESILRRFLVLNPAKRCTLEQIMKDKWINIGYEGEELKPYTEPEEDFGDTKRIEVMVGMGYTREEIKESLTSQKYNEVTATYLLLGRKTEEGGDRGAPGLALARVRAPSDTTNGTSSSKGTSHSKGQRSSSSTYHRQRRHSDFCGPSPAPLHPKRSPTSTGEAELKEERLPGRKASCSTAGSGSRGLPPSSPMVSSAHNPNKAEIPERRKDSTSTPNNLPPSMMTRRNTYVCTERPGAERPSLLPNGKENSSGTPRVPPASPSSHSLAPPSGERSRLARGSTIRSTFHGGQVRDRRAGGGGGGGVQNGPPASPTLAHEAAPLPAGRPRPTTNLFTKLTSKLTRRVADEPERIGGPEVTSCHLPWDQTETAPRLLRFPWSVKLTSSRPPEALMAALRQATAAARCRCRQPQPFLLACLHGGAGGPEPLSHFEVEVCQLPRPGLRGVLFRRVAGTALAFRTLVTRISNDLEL
pIC50: −log10 of the molar value.
Readout Name: pIC50

Structure Smiles String | pIC50
Cc1ccc(-c2cc(N3CCN(C(=N)N)CC3)ncn2)cc1 | 5.27
N=C(N)N1CCN(c2cc(-c3ccc(F)c(Cl)c3)ncn2)CC1 | 4.78

I. N=C(N)N1CCN(c2cc(-c3ccc(OC(F)(F)F)cc3)ncn2)CC1
II. N=C(N)N1CCN(c2cc(-c3ccc(C(F)(F)F)cc3)ncn2)CC1
Qu. # compare pIC50 for I vs II ; return the one with the smaller value # respond with the chosen item's label
Ans. II
